# TESTED_ON: Microtubule-associated protein tau (Homo sapiens, UniProt P10636)
# Sequence (P10636 whole entry): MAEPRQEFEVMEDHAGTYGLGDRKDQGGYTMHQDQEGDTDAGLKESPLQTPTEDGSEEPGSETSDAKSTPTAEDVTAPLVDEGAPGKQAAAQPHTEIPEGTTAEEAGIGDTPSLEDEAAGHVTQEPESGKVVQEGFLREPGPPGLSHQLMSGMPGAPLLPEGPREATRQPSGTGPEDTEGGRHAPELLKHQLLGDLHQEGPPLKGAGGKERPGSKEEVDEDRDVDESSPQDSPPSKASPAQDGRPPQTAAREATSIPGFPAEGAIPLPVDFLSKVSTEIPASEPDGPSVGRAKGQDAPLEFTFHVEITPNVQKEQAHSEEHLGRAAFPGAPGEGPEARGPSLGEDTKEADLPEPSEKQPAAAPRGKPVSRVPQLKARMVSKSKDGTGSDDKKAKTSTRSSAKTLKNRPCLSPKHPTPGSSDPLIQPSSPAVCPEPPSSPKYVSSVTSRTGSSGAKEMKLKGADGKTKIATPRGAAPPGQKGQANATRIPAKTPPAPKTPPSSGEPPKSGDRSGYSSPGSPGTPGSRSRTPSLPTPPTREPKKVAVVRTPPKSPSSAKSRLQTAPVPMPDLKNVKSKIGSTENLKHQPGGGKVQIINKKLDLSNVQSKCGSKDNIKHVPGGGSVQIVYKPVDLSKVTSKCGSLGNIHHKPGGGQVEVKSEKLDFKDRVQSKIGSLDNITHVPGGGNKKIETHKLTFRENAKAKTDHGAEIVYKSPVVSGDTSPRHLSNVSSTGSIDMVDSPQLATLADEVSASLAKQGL
# MEASUREMENT_PROTOCOL: Inhibition of tau aggregation (unknown origin) at 20 uM relative to control
ASSAY_READOUT: inhibition (%)

C[n+]1c2c(c(N)c3ccccc31)C(=O)/C(=C/c1cccc([N+](=O)[O-])c1)CC2 : 98.2
C[n+]1c2c(c(N)c3ccccc31)C(=O)/C(=C/c1cccc3ccccc13)CC2 : 102
C[n+]1c2c(c(N)c3ccccc31)C(=O)/C(=C/c1ccccc1)CC2 : 71.2
C[n+]1c2c(c(N)c3ccccc31)C(=O)/C(=C/c1cccc(F)c1)CC2 : 86.3
C[n+]1c2c(c(N)c3ccccc31)C(=O)/C(=C/c1cccs1)CC2 : 95.3

A = C[n+]1c2c(c(N)c3ccccc31)C(=O)/C(=C/c1cccc(Cl)c1)CC2
B = Nc1c2c(nc3ccccc13)CC/C(=C\c1ccccc1)C2=O
Endpoint returns the identifier whose inhibition is numerically larger, either A or B . Lab note: record the label of whichever item you select.
A
